Measured Target: UniProt:P43220
Sequence (P43220 24-463): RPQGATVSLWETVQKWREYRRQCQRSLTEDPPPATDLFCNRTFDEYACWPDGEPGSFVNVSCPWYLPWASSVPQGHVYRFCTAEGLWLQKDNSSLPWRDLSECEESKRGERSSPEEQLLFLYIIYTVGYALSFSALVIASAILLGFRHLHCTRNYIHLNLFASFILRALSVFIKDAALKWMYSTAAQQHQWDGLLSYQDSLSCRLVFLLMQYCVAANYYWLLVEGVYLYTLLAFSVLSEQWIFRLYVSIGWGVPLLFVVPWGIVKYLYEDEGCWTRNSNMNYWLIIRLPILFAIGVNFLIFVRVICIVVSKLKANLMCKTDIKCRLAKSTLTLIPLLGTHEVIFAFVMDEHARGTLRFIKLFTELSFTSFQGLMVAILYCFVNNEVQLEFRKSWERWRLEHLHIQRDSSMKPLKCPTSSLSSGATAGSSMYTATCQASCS
Experiment Notes: EndoC cAMP accumulation assay (HTRF, EndoC-βH1 cells)
Condition Context: EndoC-βH1 human pancreatic β cell line
pEC50: −log10 of the molar value.
Catalogue of compounds with associated pEC50

Compound	Measured Target	pEC50
N#Cc1ccc(COc2cccc(N3CCN(Cc4nc5cc(F)c(C(=O)O)cc5n4C[C@@H]4CCO4)[C@H]4CC[C@@H]43)n2)c(F)c1 (single isomer, unassigned) [Example 9b]	UniProt:P43220	7.57
N#Cc1ccc(COc2cccc(N3CCN(Cc4nc5cc(Cl)c(C(=O)O)cc5n4C[C@@H]4CCO4)[C@H]4CC[C@H]43)n2)c(F)c1 (single isomer, unassigned) [Example 7a]	UniProt:P43220	8.14
Cc1nccn1CCn1c(CN2CCN(c3cccc(OCc4ccc(Cl)cc4F)n3)[C@@H]3COC[C@@H]32)nc2ccc(C(=O)O)cc21 (single isomer, unassigned) [Example 25a]	UniProt:P43220	6.77
O=C(O)c1cc(Cl)c2nc(CN3CCN(c4cccc(OCc5ccc(Cl)cc5F)n4)[C@@H]4COC[C@@H]43)n(C[C@@H]3CCO3)c2c1 (single isomer, unassigned) [Example 22b]	UniProt:P43220	6.57
Cc1cc(Cn2c(CN3CCN(c4cccc(OCc5ccc(C#N)cc5F)n4)[C@@H]4CC[C@@H]43)nc3ccc(C(=O)O)cc32)no1 (racemic)	UniProt:P43220	7.00
